- Tested on: OVCAR-8
- Assay: NCI tumour cell line growth inhibition, 48 h
Active and inactive are the calls of the source. Cut-off read from the data, not from the text of the source: active = GI50 up to about 1.1 µM and inactive = higher.
Readout label: GI50

Consider the compound Cc1cccc(C2=NC(C)(C)C(C)(C)N=C2c2cccc(C)n2)n1 and give its measured GI50.
> 100 µM (inactive)

Consider the compound S=c1[nH]c2ccc(Br)cc2c(=S)s1 and give its measured GI50.
31.6 µM (inactive)

Consider the compound Cn1cnc([N+](=O)[O-])c1Sc1nccn1-c1cccc2ccccc12 and give its measured GI50.
20.8 µM (inactive)

Consider the compound O=S(=O)(O)c1cc(S(=O)(=O)O)c2c(/N=N/c3cccc4ccccc34)c(O)ccc2c1 and give its measured GI50.
> 100 µM (inactive)

###

Would you kindly list GI50 for each of these molecules?
- Tested on: HT-29
- Assay: NCI tumour cell line growth inhibition, 48 h
The source made the active and inactive calls. No stated cut-off is given here; in the data, active = GI50 up to about 1.1 µM and inactive = higher.

Consider the molecule COC(=O)C1(C(=O)OC)CC2=C(S(=O)(=O)c3ccccc3)C[C@@H](C#N)[C@H]2C1 and give its measured GI50.
> 100 µM (inactive)

Consider the molecule O=C1OC(OC/C(Br)=C(\Br)COC2OC(=O)C(Cl)=C2Cl)C(Cl)=C1Cl (stereo not drawn) and give its measured GI50.
2.55 µM (inactive)

Consider the molecule N#Cc1ccc(C2ON=C(c3ccccc3)N2C23CC4CC(CC(C4)C2)C3)cc1 (stereo not drawn) and give its measured GI50.
> 10 µM (inactive)

Consider the molecule Clc1ccccc1NN(Cc1ccccn1)c1ccccc1Cl and give its measured GI50.
14.6 µM (inactive)

Consider the molecule CC1(C)C(CC(=O)O)CCCC1CC(=O)O (stereo not drawn) and give its measured GI50.
> 100 µM (inactive)

Consider the molecule N=C1OC(c2c[nH]c3ccc(OCc4ccccc4)cc23)C(O)=C1O (stereo not drawn) and give its measured GI50.
> 100 µM (inactive)

Consider the molecule CS/C(C#N)=C(\C#N)SC and give its measured GI50.
16.1 µM (inactive)

Consider the molecule CC(=O)OCC1OC(N2C(C)=C(C(C)=O)C(c3ccco3)C(C#N)=C2S)C(OC(C)=O)C(OC(C)=O)C1OC(C)=O (stereo not drawn) and give its measured GI50.
> 100 µM (inactive)

Consider the molecule COc1cccc(NC(=O)CC(=O)N2N=C(n3ccc4ccccc43)CC2c2ccccc2)c1 (stereo not drawn) and give its measured GI50.
> 100 µM (inactive)

Consider the molecule Cc1ccc(S(=O)(=O)OI(O)CC(F)(F)F)cc1 and give its measured GI50.
> 100 µM (inactive)

Consider the molecule Cc1cccc(NC(=O)c2c(N)[n+]([O-])c3ccccc3[n+]2[O-])c1 and give its measured GI50.
13.7 µM (inactive)

Consider the molecule CC[C@H](C)[C@H]1NC(=O)C(C(C)=O)=C1O and give its measured GI50.
> 100 µM (inactive)

Consider the molecule CC(=O)c1c(=O)n(-c2ccc(C)cc2)c(O)c2c(N)n[nH]c12 and give its measured GI50.
> 100 µM (inactive)

Consider the molecule CCC(/C(=N\Nc1c(Cl)cc(Cl)cc1Cl)c1ccccc1)n1ccnc1C (stereo not drawn) and give its measured GI50.
8.05 µM (inactive)

Consider the molecule COc1ccc(C2NC(=O)Nc3c2c(=O)oc2c3ccc3ccccc32)cc1 (stereo not drawn) and give its measured GI50.
77.6 µM (inactive)

Consider the molecule O=C(Cn1ccnc1[N+](=O)[O-])c1ccccc1 and give its measured GI50.
> 100 µM (inactive)

Consider the molecule Cc1cc(C)nc(NS(=O)(=O)c2ccc(NC(=O)c3ccc(Cl)c4c(Nc5ccc(S(=O)(=O)N=C(N)N)cc5)c5ccccc5nc34)cc2)n1 and give its measured GI50.
16.4 µM (inactive)

Consider the molecule O=C(O)c1ccccc1.[Ag] and give its measured GI50.
20 µM (inactive)

###

- Test system: CAKI-1
- Assay: NCI tumour cell line growth inhibition, 48 h
The source made the active and inactive calls. No stated cut-off is given here; in the data, active = GI50 up to about 1.1 µM and inactive = higher.
Would you kindly list GI50 for each of these compounds?

Consider the compound [N-]=[N+]=Nc1cc(=O)n(-c2ccccc2)c2ccccc12 and give its measured GI50.
> 100 µM (inactive)

Consider the compound O=[N+]([O-])c1ccc(/C(=N/c2ccccc2)SS/C(=N\c2ccccc2)c2ccc([N+](=O)[O-])o2)o1 and give its measured GI50.
1.97 µM (inactive)

Consider the compound C=CCC(CCC(C)=O)(C(=O)OCC)C(=O)OCC and give its measured GI50.
> 100 µM (inactive)

Consider the compound CC1(c2cccc3c2C2(O)C=CC4(CCC32)OCCO4)OCCO1 (centres undefined) and give its measured GI50.
> 100 µM (inactive)

###

- Test system: MDA-MB-435
- Assay: NCI tumour cell line growth inhibition, 48 h
Calls of active or inactive are those of the source. Rule as the data show it: active = GI50 up to about 1.1 µM and inactive = higher.
Give your call using only these classes: active, inactive

Please share the test call associated with CSc1ccc(NC(=S)NN(C)C)cc1 .
inactive

Please share the test call associated with O=C(/C=C/C(=O)N1CCCC1)N1CCCC1 .
inactive

Please share the test call associated with Clc1ncnc2c1nc(C#Cc1ccccc1)n2Cc1ccccc1 .
inactive

Please share the test call associated with c1ccc2c(-c3csc(-c4c[nH]c5ccccc45)n3)c[nH]c2c1 .
inactive

Please share the test call associated with CC(C)CCC1(CCN)C(=O)NC(=O)NC1=O .
inactive

Please share the test call associated with CCN1CCN(c2nc3ccccc3nc2C(=O)c2ccc(OC)cc2)CC1 .
inactive

Please share the test call associated with O=C(O)CNc1ccc2c(c1)Cc1cc(Br)ccc1-2 .
inactive

Please share the test call associated with O=C(O)c1ccccc1Sc1ccccc1[N+](=O)[O-] .
inactive

Please share the test call associated with CCN1C(=O)/C(=C/Nc2ccccc2)S/C1=N/Nc1nc(-c2ccc(O)c(O)c2)cs1 .
inactive

Please share the test call associated with CC(=O)c1c(=O)n(-c2ccc(C)cc2)c(O)c2c(N)n[nH]c12 .
inactive

Please share the test call associated with Cc1cc(=O)[nH]c2cc(NC(=O)C(C)NC(=O)C(C)NC(=O)C(C)NC(=O)OC(C)(C)C)ccc12 (stereo unspecified) .
inactive

Please share the test call associated with O=C1/C(=C(/Br)I)c2ccccc2-c2ccccc21 .
inactive

Please share the test call associated with CCC1NC(=O)C(NC(=O)c2ncccc2O)C(C)OC(=O)C(c2ccccc2)NC(=O)C2CC(=O)CCN2C(=O)C(Cc2ccccc2)N(C)C(=O)C2CCCN2C1=O (stereo unspecified) .
inactive

Please share the test call associated with N#Cc1c(-c2ccc(Cl)cc2)c(C#N)c(=O)n(NS(=O)(=O)c2ccccc2)c1-c1ccccc1 .
inactive

Please share the test call associated with CC(=O)O[C@H]1C(=O)[C@@]2(C)[C@H]([C@H](OC(=O)C3CCCCC3)[C@]3(O)C[C@H](OC(=O)[C@H](O)[C@@H](NC(=O)C4CCCCC4)C4CCCCC4)C(C)=C1C3(C)C)[C@]1(OC(C)=O)CO[C@@H]1C[C@@H]2O .
active

Please share the test call associated with O=C1C(Br)=CC2(C=C1Br)CCNC1=C2C(=O)c2ncccc2C1=O .
active

###

Would you kindly list GI50 for each of these compounds?
- Tested on: MDA-MB-435
- Assay: NCI tumour cell line growth inhibition, 48 h
Activity calls are given as the source filed them. Cut-off read from the data, not from the text of the source: active = GI50 up to about 1.1 µM and inactive = higher.

Consider the compound C/C(=N\Nc1nc2ccccc2s1)c1cccnn1 and give its measured GI50.
4.26 µM (inactive)

Consider the compound NS(=O)(=O)c1ccc(/N=N/c2ccc(O)cc2)cc1 and give its measured GI50.
11.3 µM (inactive)

Consider the compound CN(NC(=O)/C(=C/C=C/c1ccccc1)NC(=O)c1ccccc1)C1=C(Cl)C(=O)[N+](c2ccccc2)=CC1 and give its measured GI50.
17 µM (inactive)

Consider the compound CC(=O)Nc1ccc(C(=O)N[C@@H]2C(=O)N3[C@@H]2SC(C)(C)[C@@H]3C(=O)O)cn1 and give its measured GI50.
> 100 µM (inactive)

Consider the compound CC1NC(=O)C2Cc3ccc(O)c(c3)Oc3ccc(cc3)C(O)C(C(=O)N2C)N(C)C(=O)C(C)NC(=O)C(Cc2ccc(O)cc2)N(C)C(=O)C(C)NC1=O (stereo unspecified) and give its measured GI50.
18.8 µM (inactive)

Consider the compound CC1(C)C(CC(=O)O)CCCC1CC(=O)O (stereo unspecified) and give its measured GI50.
> 100 µM (inactive)

###

- Test system: CCRF-CEM
- Assay: NCI tumour cell line growth inhibition, 48 h
Active and inactive are the calls of the source. Cut-off read from the data, not from the text of the source: active = GI50 up to about 1.1 µM and inactive = higher.
Give your call using only these classes: y = active, n = inactive

Please share the test call associated with Cc1cc(=O)[nH]c2cc(NC(=O)C(C)NC(=O)C(C)NC(=O)C(C)NC(=O)OC(C)(C)C)ccc12 (stereo not given) .
n

Please share the test call associated with CC1=C(CO)C(=O)OC(C(C)C2CCC3C4CC5OC56C(O)C(N5CC5)=CC(=O)C6(C)C4CCC23C)C1 (stereo not given) .
n

Please share the test call associated with COc1c(C)c2c(c3c1c(=O)c1ccccc1n3C)C=CC(C)(C)O2 .
n

Please share the test call associated with CC[n+]1[b-](C(C)(C)C)n(/N=C/C(C)(C)C)[b-](C(C)(C)C)[n+]1CC .
n

Please share the test call associated with CCOC(=O)C1=C(C)C2C3C(=O)NC(=O)C3C1(C)C1C(=O)NC(=O)C21 (stereo not given) .
n

Please share the test call associated with CC(=O)/C=C/CCC(=O)/C=C/C(=O)OC(CCC(=O)/C=C/C(=O)O)CC(C)=O (stereo not given) .
n

Please share the test call associated with COc1cccc(N2C(=O)CS(=O)(=O)C2c2cccc(Oc3ccccc3)c2)c1 (stereo not given) .
n

Please share the test call associated with CN(C)CCS/C(=N\c1ccccc1)N1C=COC=C1 .
n

Please share the test call associated with Cn1cc(NC(=O)Nc2cc(C(=O)Nc3cc(C(=O)Nc4cc(S(=O)(=O)O)c5cc(S(=O)(=O)O)cc(S(=O)(=O)O)c5c4)n(C)c3)n(C)c2)cc1C(=O)Nc1cc(C(=O)Nc2cc(S(=O)(=O)O)c3cc(S(=O)(=O)O)cc(S(=O)(=O)O)c3c2)n(C)c1 .
n

Please share the test call associated with O=C(/C=C/C(=O)N1CCCC1)N1CCCC1 .
n

Please share the test call associated with O=C1/C(=C/c2cccc3ccccc23)Cc2ccccc21 .
n

Please share the test call associated with COC(=O)CC[N+]1([O-])CC1 .
n

Please share the test call associated with CC(C)(C)OC(=O)NC(Cc1ccc(O)cn1)C(=O)O (stereo not given) .
n

Please share the test call associated with COc1ccc(C[N+]23C(CC[C@H]2c2ccccc2)CC[C@H]3c2ccccc2)cc1 (stereo not given in full) .
n

Please share the test call associated with O=C(O)CCNCC(=O)O .
n

Please share the test call associated with CCCCN(CCCC)c1c([N+](=O)[O-])c(=O)nc2ccccn12 .
n

Please share the test call associated with Brc1ccc2[nH]c3c(C4=NCCC4)nccc3c2c1 .
n

Please share the test call associated with N#Cc1ccccc1NC(=O)/C(=N\N)C(C(=O)c1ccncc1)C1OC(=O)c2ccccc21 (stereo not given) .
n

Please share the test call associated with CC(C)(C)c1cc([N+](=O)[O-])cc([N+](=O)[O-])c1O .
n

Please share the test call associated with C[C@]12CCC3C4=C(CCC3C1CCC2=O)C(=O)[C@H]1O[C@H]1C4=O (stereo not given in full) .
n

Please share the test call associated with CC(=O)OCC1OC(N2C(C)=C(C(C)=O)C(c3ccco3)C(C#N)=C2S)C(OC(C)=O)C(OC(C)=O)C1OC(C)=O (stereo not given) .
n

Please share the test call associated with O=C1OCC2C1C1c3ccccc3C(O)c3ccccc3C21 (stereo not given) .
n

Please share the test call associated with COc1ccc(/C=N/n2cnc3c(sc(=S)n3-c3ccccc3)c2=O)cc1 .
n

Please share the test call associated with O=[N+]([O-])c1ccc(/C=N/n2c(CO)nc3ccccc32)o1 .
n

Please share the test call associated with N#C[C@](CO)(NC(=O)OCc1ccccc1)C(F)F .
n

Please share the test call associated with O=C1C=CC(=O)C(CNc2ccc(C(=O)OCc3ccccc3)cc2)=C1 .
y

Please share the test call associated with COc1c(C)c(C/C=C(\C)CCCCO[Si](C(C)C)(C(C)C)C(C)C)c(OC)c2ccccc12 .
n

Please share the test call associated with CCC1=NC(N/N=C/c2ccccc2O)=N/C1=C\c1ccccc1O .
n

Please share the test call associated with CCOC(=O)Cn1c(=O)ccn(COCCO)c1=O .
n

Please share the test call associated with C=CCC(CCC(C)=O)(C(=O)OCC)C(=O)OCC .
n

Please share the test call associated with CN(CC#N)C1CCCC[C@H]1O (stereo not given in full) .
n

Please share the test call associated with CC1=N/C(=C\c2ccc(/C=C3/N=C(C)OC3=O)cc2)C(=O)O1 .
n

Please share the test call associated with O=C(Oc1ccc(Cl)cc1[N+](=O)[O-])c1ccccc1 .
n

Please share the test call associated with CCCCCCCCCCCCN(CC(O)C(O)C(OC1OC(CO)C(O)C(O)C1O)C(O)CO)C(=O)CCCCCCCCCCC (stereo not given) .
n

Please share the test call associated with CN(C)/C=C/c1c2c(nc3ccccc13)C(=O)c1cccnc1C2=O .
n
